- ASSAY_COMMENT: Solubility test (UV spectrophotometer, saturated solutions shaken 24 hours)
- Assay type: physicochemical
- CONDITION_SET: 25° C., pH=1.2 hydrochloric acid solution
// classify: if (Solubility, Water medium pH = 1.2 < 50 mg/mL) Criterion met else Criterion not met

Challenge: Regarding CC(C)n1c(Nc2cccnc2)nc2cnc(Nc3ccc(N4CCN(C)CC4)cc3)nc21 [Example 5] , kindly confirm whether its Solubility, Water medium pH = 1.2 is beneath 50 mg/mL.
Response given: Criterion not met

Challenge: Also check CC(C)n1c(Nc2cccnc2)nc2cnc(Nc3ccc(N4CCN(C)CC4)cc3)nc21 [Example 4]
Response given: Criterion not met

Challenge: And for CC(C)n1c(Nc2cccnc2)nc2cnc(Nc3ccc(N4CCN(C)CC4)cc3)nc21 [Example 1] ?
Response given: Criterion met

Challenge: Further, for CC(C)n1c(Nc2cccnc2)nc2cnc(Nc3ccc(N4CCN(C)CC4)cc3)nc21 [Example 11] ?
Response given: Criterion not met

Challenge: Lookup CC(C)n1c(Nc2cccnc2)nc2cnc(Nc3ccc(N4CCN(C)CC4)cc3)nc21 [Example 6]
Response given: Criterion not met

Challenge: Similarly, CC(C)n1c(Nc2cccnc2)nc2cnc(Nc3ccc(N4CCN(C)CC4)cc3)nc21 [Example 9] ?
Response given: Criterion met

Challenge: Then what about the molecule CC(C)n1c(Nc2cccnc2)nc2cnc(Nc3ccc(N4CCN(C)CC4)cc3)nc21 [Example 10] ?
Response given: Criterion not met

----------
I'd be grateful if you could share measured TGA: starting to lose the acid for these entries.
- ASSAY_COMMENT: DSC and TGA tests
- Assay type: physicochemical
- CONDITION_SET: onset temperature

Challenge: Can you look up the measured TGA: starting to lose the acid of CC(C)n1c(Nc2cccnc2)nc2cnc(Nc3ccc(N4CCN(C)CC4)cc3)nc21 [Example 13] for me?
Response given: ~140 °C (see FIG. 35)

Challenge: // repeat for CC(C)n1c(Nc2cccnc2)nc2cnc(Nc3ccc(N4CCN(C)CC4)cc3)nc21 [Example 3] and report
Response given: ~120 °C (see FIG. 21)

Challenge: And then CC(C)n1c(Nc2cccnc2)nc2cnc(Nc3ccc(N4CCN(C)CC4)cc3)nc21 [Example 14] , what is it?
Response given: ~80 °C (see FIG. 37)
